Test system: monkey primary hepatocytes
Assay notes: Metabolic disposition of [^14C]-Compound 1 and [^14C]-2′-C-methyl guanosine in monkey primary hepatocytes (incubation medium, cellular extracts, nucleotide levels)
Assay type: in vitro ADME, Cynomolgus monkey
Condition info: monkey hepatocytes (lot Cy234), 10 μM [^14C]-Compound 1, 4 h
Here the recorded metabolites observed in medium (% of total radioactivity) is given for each entry.
I only need the number, in %, no unit after it.

Solved entries:
Compound	Tested system	Recorded number
C[C@@]1(O)[C@H](O)[C@@H](COP(=O)(O)NCc2ccccc2)O[C@H]1n1cnc2c(=O)[nH]c(N)nc21 [Compound 2]	monkey primary hepatocytes	1.1
C[C@@]1(O)[C@H](O)[C@@H](COP(=O)(O)O)O[C@H]1n1cnc2c(=O)[nH]c(N)nc21 [Compound 5]	monkey primary hepatocytes	19.0

// below: metabolites observed in medium (% of total radioactivity) requested for another compound
Input C[C@@]1(O)[C@H](O)[C@@H](CO)O[C@H]1n1cnc2c(=O)[nH]c(N)nc21 [2′-C-methyl guanosine, 9-(2-C-methyl-β-D-ribofuranosyl)guanine, reference compound] , output reported metabolites observed in medium (% of total radioactivity). 6.8
